Test system: IL-17A
Test: IL-17 release from differentiated primary human T-cells (IL-17A HTRF assay)
Assay type: cell-based
Conditions: primary human CD4+ T cells differentiated into Th17 cells, 45-hour incubation, IL-17A in supernatant; read-out: hIL17 IC50
RECORDED_METRIC: IC50 (nM)

[I] C[C@H]1C(=O)C(C#N)=C[C@@]2(C)c3nn(-c4cccc5ccccc45)c(-c4ccccc4)c3CC[C@H]12
[II] C[C@H]1C(=O)C(C#N)=C[C@@]2(C)c3nc(-c4ccc(N(C)C)cc4)n(-c4cccc(F)c4)c3CC[C@H]12
Q) # return whichever of I and II has the smaller IC50 Identify your selection by its label.
A) I

* * *

Target: Human RAR-related Orphan Receptor Gamma (RORγ) (Homo sapiens)
Sequence (P51449 269-508 limits assumed): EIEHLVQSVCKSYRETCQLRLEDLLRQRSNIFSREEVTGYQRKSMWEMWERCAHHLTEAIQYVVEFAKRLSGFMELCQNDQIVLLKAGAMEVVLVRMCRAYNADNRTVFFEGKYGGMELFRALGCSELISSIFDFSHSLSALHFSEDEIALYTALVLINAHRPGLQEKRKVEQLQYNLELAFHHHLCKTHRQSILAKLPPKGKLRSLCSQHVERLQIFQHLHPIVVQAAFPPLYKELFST
Experiment: RORγ assay (GAL4-RORγ hybrid luciferase reporter, Indigo Biosciences)
Conditions: inverse-agonist activity, GAL4-RORγ reporter cells, 23 hours
Procedure: B. RORγ Assay and Cell Viability The RORγ assay system was purchased from Indigo Biosciences. […] The GAL4-RORγ hybrid is constitutively active; therefore, the principle application of this reporter assay system is to screen test compounds to quantify inverse-agonist activities against human RORγ. […] After this incubation, luciferin was added to the wells and luciferase activity was determined by measuring the luminescence signal using a BMG Pherastar microplate reader. […]
pIC50: −log10 of the molar value.
RECORDED_METRIC: pIC50

COMPOUND | MEASUREMENT
C[C@H]1C(=O)C(C#N)=C[C@@]2(C)c3c(c(-c4ccncn4)nn3-c3nc4ccccc4s3)CC[C@H]12 [T98] | 6.54
C[C@H]1C(=O)C(C#N)=C[C@@]2(C)c3c(c(-c4ccccc4F)nn3-c3nc4ccccc4n3C)CC[C@H]12 [T90] | 6.87
CC(C)c1ccc(-c2nc3c(n2Cc2ccncc2)CC[C@@H]2[C@@H](C)C(=O)C(C#N)=C[C@@]32C)cc1 [T171] | 6.59
CC(=O)n1c(-c2ccc(C(C)C)cc2)nc2c1CC[C@@H]1[C@@H](C)C(=O)C(C#N)=C[C@@]21C [T174] | 5.80

[1] Cc1cc(-c2ccc(-n3nc(-c4ccccc4F)c4c3[C@]3(C)C=C(C#N)C(=O)[C@H](C)[C@H]3CC4)cc2)cnn1 [T83]
[2] C[C@H]1C(=O)C(C#N)=C[C@@]2(C)c3nc(-c4cccc(-c5ccnn5C)c4)n(-c4cccc(F)c4)c3CC[C@H]12 [T151]
Q) # return whichever of 1 and 2 has the smaller pIC50 Identify your selection by its label.
A) 2

* * *

Biological target: Human RAR-related Orphan Receptor Gamma (RORγ) (Homo sapiens)
Assay: RORγ assay (GAL4-RORγ hybrid luciferase reporter, Indigo Biosciences)
Details: inverse-agonist activity, GAL4-RORγ reporter cells, 23 hours
pIC50: −log10 of the molar value.
RECORDED_METRIC: pIC50

CHEMICAL_SMILES | pIC50
C[C@H]1C(=O)C(C#N)=C[C@@]2(C)c3c(c(-c4ccccc4)nn3-c3ccc(C(F)(F)F)cc3)CC[C@H]12 | 7.04
C[C@H]1C(=O)C(C#N)=C[C@@]2(C)c3nn(-c4ccc(-c5ccccc5)cc4)c(-c4cccnc4)c3CC[C@H]12 | 6.86
C[C@H]1C(=O)C(C#N)=C[C@@]2(C)c3c(c(NC4CCC4)nn3-c3ccc(-c4ccccc4)cc3)CC[C@H]12 | 7.21

[a] CC(C)c1ccc(-c2nc3c(n2C(C)C)CC[C@@H]2[C@@H](C)C(=O)C(C#N)=C[C@@]32C)cc1
[b] Cc1ccccc1-c1ccc(-n2nc(-c3ccccc3)c3c2[C@]2(C)C=C(C#N)C(=O)[C@H](C)[C@H]2CC3)cc1
Q) When their pIC50 values are compared, which is larger, a or b ? Identify your selection by its label.
A) b
(b: 7.08, a: 6.85)

* * *

Biological target: Human RAR-related Orphan Receptor Gamma (RORγ) (Homo sapiens)
Sequence (P51449 269-508 limits assumed): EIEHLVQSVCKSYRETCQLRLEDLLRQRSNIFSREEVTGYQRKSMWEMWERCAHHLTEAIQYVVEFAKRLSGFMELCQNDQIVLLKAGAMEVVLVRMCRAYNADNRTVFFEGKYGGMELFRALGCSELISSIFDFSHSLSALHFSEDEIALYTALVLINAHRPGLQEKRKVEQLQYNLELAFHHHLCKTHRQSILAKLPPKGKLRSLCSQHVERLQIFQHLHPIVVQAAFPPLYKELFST
Test: RORγ assay (GAL4-RORγ hybrid luciferase reporter, Indigo Biosciences)
Conditions: inverse-agonist activity, GAL4-RORγ reporter cells, 23 hours
pIC50: −log10 of the molar value.
RECORDED_METRIC: pIC50

[I] C[C@H]1C(=O)C(C#N)=C[C@@]2(C)c3c(c(-c4ccccc4)nn3-c3cccc(-c4ccccc4)c3)CC[C@H]12
[II] C[C@H]1C(=O)C(C#N)=C[C@@]2(C)c3c(c(C4CCCCC4)nn3-c3ccc(-c4ccccc4)cc3)CC[C@H]12
Q) # return whichever of I and II has the smaller pIC50 Identify your selection by its label.
A) I
(I: 6.89, II: 7.14)

[a] C[C@H]1C(=O)C(C#N)=C[C@@]2(C)c3c(c(-c4ccc(CF)cc4)nn3-c3ccc(-c4ccccc4)cc3)CC[C@H]12
[b] C[C@H]1C(=O)C(C#N)=C[C@@]2(C)c3c(c(C4CC4)nn3-c3ccc(-c4ccccc4)cc3)CC[C@H]12
Q) When their pIC50 values are compared, which is larger, a or b ? Identify your selection by its label.
A) b

* * *

Target: UniProt P51449
Test: RORγ assay (GAL4-RORγ hybrid luciferase reporter, Indigo Biosciences)
Details: inverse-agonist activity, GAL4-RORγ reporter cells, 23 hours
Method: B. RORγ Assay and Cell Viability The RORγ assay system was purchased from Indigo Biosciences. […] The GAL4-RORγ hybrid is constitutively active; therefore, the principle application of this reporter assay system is to screen test compounds to quantify inverse-agonist activities against human RORγ. […] After this incubation, luciferin was added to the wells and luciferase activity was determined by measuring the luminescence signal using a BMG Pherastar microplate reader. […]
RECORDED_METRIC: IC50 (nM)

COMPOUND | RECORDED_METRIC | U | MEASUREMENT
C[C@H]1C(=O)C(C#N)=C[C@@]2(C)c3nc(-c4cccc(Br)c4)n(-c4cccc(F)c4)c3CC[C@H]12 [T145] | IC50 | nM | 92

[A] CC(C)c1cccc(-c2nn(-c3ccc(-c4ccccc4)cc3)c3c2CC[C@@H]2[C@@H](C)C(=O)C(C#N)=C[C@@]32C)c1 [T71]
[B] C[C@H]1C(=O)C(C#N)=C[C@@]2(C)c3nc(-c4ccccc4)n(-c4nnn(C)n4)c3CC[C@H]12 [T111]
Q) # return whichever of A and B has the smaller IC50 Identify your selection by its label.
A) A

* * *

Test system: IL-17A
Assay: IL-17 release from differentiated primary human T-cells (IL-17A HTRF assay)
Format: cell-based
Conditions: primary human CD4+ T cells differentiated into Th17 cells, 45-hour incubation, IL-17A in supernatant; read-out: hIL17 IC50
RECORDED_METRIC: IC50 (nM)

Some molecules with recorded IC50:
CHEMICAL_SMILES | MEASURED_ON | MEASUREMENT
C[C@H]1C(=O)C(C#N)=C[C@@]2(C)c3c(c(-c4ccccc4)nn3-c3ccc(-c4ccc(N(C)C)cc4)cc3)CC[C@H]12 | IL-17A | 26
Cc1ccccc1-n1nc(-c2ccccc2)c2c1[C@]1(C)C=C(C#N)C(=O)[C@H](C)[C@H]1CC2 | IL-17A | 94

[1] C[C@H]1C(=O)C(C#N)=C[C@@]2(C)c3c(c(-c4ccccc4)nn3-c3ccncc3)CC[C@H]12
[2] C[C@H]1C(=O)C(C#N)=C[C@@]2(C)c3c(c(-c4ccccc4F)nn3-c3ccc(-c4ccncc4)cc3)CC[C@H]12
Q) When their IC50 values are compared, which is larger, 1 or 2 ? Identify your selection by its label.
A) 1

* * *

Tested on: IL-17A
Experiment: IL-17 release from differentiated primary human T-cells (IL-17A HTRF assay)
Format: cell-based
Details: primary human CD4+ T cells differentiated into Th17 cells, 45-hour incubation, IL-17A in supernatant; read-out: hIL17 IC50
pIC50: −log10 of the molar value.
RECORDED_METRIC: pIC50

Some compounds with recorded pIC50:
COMPOUND | MEASUREMENT
Cc1noc(C)c1-c1cccc(-c2nc3c(n2-c2cccc(F)c2)CC[C@@H]2[C@@H](C)C(=O)C(C#N)=C[C@@]32C)c1 [T150] | 6.98
C[C@H]1C(=O)C(C#N)=C[C@@]2(C)c3c(c(N4CCOCC4)nn3-c3ccc(-c4ccccc4)cc3)CC[C@H]12 [T77] | 7.17
C[C@H]1C(=O)C(C#N)=C[C@@]2(C)c3c(c(-c4ccccc4F)nn3-c3ccc(-c4cncnc4)cc3)CC[C@H]12 [T82] | 7.20

[P] C[C@H]1C(=O)C(C#N)=C[C@@]2(C)c3c(c(-c4ccncn4)nn3-c3ccc(-c4cccnc4)cc3F)CC[C@H]12 [T53]
[Q] C[C@H]1C(=O)C(C#N)=C[C@@]2(C)c3c(c(C4CCCCC4)nn3-c3ccc(-c4ccccc4)cc3)CC[C@H]12 [T76]
[R] C[C@H]1C(=O)C(C#N)=C[C@@]2(C)c3c(c(N(C)C4CCC4)nn3-c3ccc(-c4ccccc4)cc3)CC[C@H]12 [T80]
Q) Please put the entries in order of rising pIC50. Field: ranking. Enter the labels in the order requested.
A) P, Q, R
